Readout: melting point

1) CCOC(=O)c1nnc2ccc(NC(C)C)cc2c1O	170 to 171 °C
2) CN1CC(=O)Nc2cccnc2C1=O	272 to 274 °C
3) O=C(NC1CCC(OCc2ccccc2)CC1)NC12CC3CC(CC(C3)C1)C2 (stereo not given)	181 °C
4) O=S(=O)(Cc1ccccc1)c1ccc(Cl)cc1	148 °C
5) CCc1nc2c(N)nc(C)c(C)c2n1CCOCCN1CCCS1(=O)=O	157 to 159 °C
6) Cc1ncc2n1-c1ccccc1C(c1ccccc1)=NC2	180 to 182 °C
7) COc1ccc(CN2CCc3cc(O)ccc3C2)c(OC)c1	149 to 152 °C
8) OC(CNCc1ccccc1)COc1ccc(CCOCC2CC2)cc1 (stereo not given)	75 to 76 °C
9) N#Cc1ccccc1Cn1cc(-c2ccnc(Cl)c2)n(-c2ccc(F)cc2)c1=O	109 °C
10) CCc1cccc(NC(=O)NC2N=C(c3ccccc3F)c3ccccc3N(CC(=O)N3CC4CCC(CC4)C3)C2=O)c1 (racemic)	185 to 192 °C

###

Readout: melting point

1. CCC1CCSc2ccc(Nc3ncc(Cl)c(Nc4ccccc4C(=O)NC)n3)nc2C1 (centres undefined)	228 to 231 °C
2. O=C(O)CCCc1cc2cc(Cl)ccc2n1S(=O)(=O)c1ccc2ncsc2c1	74 to 80 °C
3. CC1(C)CCc2c(N3CCCC3)nc3sc4c(NCCc5c[nH]cn5)ncnc4c3c2C1	192 to 193 °C
4. CCN(CC)CCNc1nc2cccnc2n(-c2ccc(Cl)cc2)c1=O	149 to 150 °C
5. CCCc1n[nH]c2c(=O)[nH]c(-c3cc(S(=O)(=O)N4CCN(C)CC4)ccc3OCC)nc12	236 to 239 °C
6. CN(C)c1ccc(/C=C/c2ccccc2F)c2ccccc12	56 to 58 °C
7. Fc1ccc(NC(=S)NN2CC=CCC2)cc1	163 to 164 °C
8. Nc1c(-c2ccc(-c3ccc(F)cc3F)cc2)nc2ccc(Cl)cc2c1C(=O)O	253 to 254 °C
9. Nc1ccc(Sc2c(NCc3ccccc3)cc(C(=O)O)cc2S(N)(=O)=O)cc1	254 to 256 °C

###

Readout: melting point

1. COc1cc(OC)c2c(=O)[nH]c(-c3cc(C)c(OCCO)c(C)c3)cc2c1	193 to 195 °C
2. O=C1Nc2cccnc2N(C(=O)NCCN2CCC(CN3CCCCC3)C2)c2ccccc21 (centres undefined)	168 to 169 °C
3. Cc1cc(C(Cc2ccc(CCCc3nc(-c4ccccc4)oc3C)cc2)C(=O)O)on1 (centres undefined)	133 to 135 °C
4. O=C(Nc1cccc(S(=O)(=O)Nc2ccccc2)c1)c1cnn2c(C(F)(F)F)cc(-c3ccc(C(F)(F)F)cc3)nc12	258 °C

###

This section presents molecules with their documented melting point values.
Readout: melting point

1) CCOC(=O)c1cn(CCO)c2nc(N3CCN(C)CC3)ncc2c1=O	197 to 199 °C
2) CC(C)c1nc2ccccc2c(=O)n1NC(=O)C(C)c1ccccc1 (stereo not given)	48 to 55 °C
3) O=C(c1ccc(C(=O)c2ccc(F)c([N+](=O)[O-])c2)cc1)c1ccc(F)c([N+](=O)[O-])c1	221 to 223 °C
4) C1=Cc2ccccc2SS1	82 to 83 °C
5) O=c1[nH]c2cc(Cl)c([N+](=O)[O-])cc2n(C2CCCCC2)c1=O	> 300 °C
6) OC1CCc2cc(Cl)c(Cl)cc21 (stereo not given)	84 °C
7) Cc1nc(-c2ccccc2)nc(-c2cccc([N+](=O)[O-])c2)c1C(=O)NCN1CCN(C)CC1	129 to 131 °C
8) CN1C(=O)Cc2cc(C(=O)[C@H]3C[C@H]3C(=O)O)ccc21 (relative stereo)	237 to 240 °C
9) O=S(=O)(c1ccc(O)cc1)c1ccc(-c2ccccc2)cc1	246 to 248 °C
10) NC(=O)c1c(Cl)c(-c2cncs2)n2c1CCCC2	227 °C
11) CC(=O)Nc1ccc(S(=O)(=O)Nc2ccc(C(O)(C(F)(F)F)C(F)(F)F)cc2)cc1	198 to 200 °C
12) O=C(O)CCCOc1cccc2c1Cc1sc(SCCC(c3ccccc3)c3ccccc3)nc1-2	86 to 88 °C
13) CC(C)C(NC(=O)Cn1cccc(NC(=O)Nc2ccccc2)c1=O)C(=O)C(F)(F)F (stereo not given)	94 to 106 °C
14) CN(C)C(=O)c1c(Cl)csc1-c1ncc(C(F)(F)F)cc1Cl	85 to 86 °C
15) COC(=O)CN1C(=O)c2ccc(F)cc2S1(=O)=O	86 °C
16) O=c1c2cnc(N3CCOCC3)nc2sn1CCN1CCCCC1	98 to 100 °C
17) O=C(O)CCC(=O)c1ccc(-c2ccc(Br)cc2)cc1	198 to 200 °C
18) CCCCCC(CC(=O)Nc1cc(CO)ccc1C(C)(C)C)c1ccc(OC)cc1OC (stereo not given)	125 to 126 °C
19) Cc1ccc(-c2cccc(C#N)c2)cc1	59 to 61 °C
20) CCCc1nnc(N2N=C(c3ccc([N+](=O)[O-])c(C)c3)c3cc4c(cc3C[C@H]2C)OCO4)s1	143 to 145 °C

###

This section presents compounds with their documented melting point values.
Readout: melting point

1) Cc1cc(Cl)cc2c1OCCCC2=O	56 to 58 °C
2) O=C1c2nccnc2C(=O)N1c1ccc(Cl)cn1	165 °C
3) CC(C)CNC(=O)c1ccc(C2(F)CC2c2ccc(Cl)cc2)cc1 (stereo unspecified)	140 °C
4) CC(C)COC(=O)C1(F)C(=O)NC(=O)NC1O/N=C\c1ccco1 (stereo unspecified)	159 to 160 °C
5) COc1cn(-c2cc3c(cc2F)OC(F)(F)C(F)(F)O3)nc(-c2ccnn2-c2ccccc2)c1=O	192 to 194 °C
6) C#CCC(=C1NCCCS1)[N+](=O)[O-]	132 to 135 °C
7) Brc1cccc(Sc2ccc3ccccc3c2)c1	68 to 70 °C
8) COc1ccc(C(=O)Nc2ccccc2)c2c1oc1ccc(NC(C)=O)cc12	252 °C
9) CCn1ncc2c(NCC3CCCCC3)c3cc(OCC(O)CO)ccc3nc21 (stereo unspecified)	197 to 199 °C
10) CCN(CC)c1nc(Cl)nc(Cl)n1	77 to 79 °C
11) O=C(O)c1cn(CCF)c2nc(N3CCNCC3)c(F)cc2c1=O	223 to 225 °C

###

Readout: melting point

1) COCCc1nc2c(N)nc3ccccc3c2n1CCCCNC(=O)c1c[nH]c2ccccc12	226 to 227 °C
2) COc1ccc(C2CCN(C(=O)CCC(=O)c3ccc4c(c3)CCNCC4)CC2)cc1	99 to 100 °C
3) COC1=C(OC)C(=O)C(CCCCCCCCCC=O)=C(C)C1=O	44.5 to 46.5 °C
4) CCOC(=O)/C=C(\c1ccc(F)cc1)c1cc(OC)c(OC)c(OC)c1	133 to 135 °C
5) CC(C)(C)c1ccc2c(c1O)C(=O)c1c(O)cccc1C2	126 to 127 °C
6) Cc1cc(=O)[nH]n(Cc2ccccc2)c1=O	> 200 °C
7) CC(C)C1(C)N=C(c2ncc(CN(C)C)cc2C(=O)O)NC1=O (configuration not stated)	186 to 190 °C
8) CCn1nc2c(N)nc3cnccc3c2c1CC(C)(C)C	> 260 °C
9) CC(C)(C)OC(=O)N1CCN(Cc2ccc(NC(=O)Oc3ccccc3)c(C(F)(F)F)c2)CC1	143 to 147 °C
10) CC(NC(=O)c1ccc(Cl)cc1)c1cccc2ccccc12 (configuration not stated)	117 to 118 °C
11) O=C1Nc2ccccc2N(C(=O)N2CCCC(CCCN3CCCC3)C2)c2ncccc21 (configuration not stated)	174 to 176 °C
12) COc1ccccc1NC(=O)c1ccc(C)cc1	72.5 to 74.5 °C
13) CCC(=O)NC1CCC(CNc2nc3c(s2)CCOc2ccccc2-3)CC1 (configuration not stated)	70 to 73 °C
14) Cc1cnc2c(c1)CCCC2Cl (configuration not stated)	177 °C
15) COC(=O)C=CC1C(C(=O)OC(C#N)c2cccc(Oc3ccccc3)c2)C1(C)C (configuration not stated)	98 °C
16) CCOC(=O)c1coc2c(OC)ccc(C(=O)Cc3c(Cl)cncc3Cl)c12	142 to 143 °C
17) O=C(O)c1cc2c(cc1C(=O)O)COCC2	179 to 181 °C
18) Cc1c(C)c2c(c(C)c1N)CC(C)(CN(C)C)O2 (configuration not stated)	66 to 67 °C
19) Cc1cc(C)nc(-n2ncnc2N)n1	230 to 232 °C
20) COc1cc(OC)c2c(c1)c(-c1cc3cccnc3[nH]1)cn2C	220 °C
21) COCc1c(C(=O)OC(C)C)ncc2[nH]c3ccc(I)cc3c12	233 to 235 °C
22) Cc1nnc2c(Cl)nc3ccccc3n12	215 to 222 °C
